assay-target: PgQC (Porphyromonas gingivalis)
Construct: Ki; RA (average residual QC activity of PgQC); other: c = 1 μM; other: c = 1.5 μM; other: c = 10 μM; other: c = 100 μM; other: c = 12 μM; RA; fused on or other part: N-terminal His tag from pET28a(+), cleaved off by thrombin before the enzymatic characterisation
test-details: biochemical
Parameters: species or system P. gingivalis
cond: inhibition of PgQC, H-Gln-AMC, 50 mM Tris-HCl, 50 mM NaCl pH 8.0, 30° C.; read-out: Ki (average)
Please respond with reported Ki for every item in the list.
Please respond with the number in nM and leave the unit unwritten.

Exercise: Give Ki for O=C(/C=C/c1ccccc1)N1CCc2[nH]cnc2C1 [MWT-S-00146] tested on PgQC (Porphyromonas gingivalis).
Key: 1580

Exercise: Quote Ki with test system PgQC (Porphyromonas gingivalis) for O=C(CCc1ccccc1)N1CCc2[nH]cnc2C1 [MWT-S-00147]
Key: 1750

Exercise: Using PgQC (Porphyromonas gingivalis) as the test system, report measured Ki of O=C(c1ccc(Cl)c(Cl)c1)N1CCc2[nH]cnc2C1 [MWT-S-00159] .
Key: 257

Exercise: For PgQC (Porphyromonas gingivalis), give the measured Ki of the entry CC1c2nc[nH]c2CCN1Cc1ccccc1 (stereo not shown) [MWT-S-00265]
Key: 3080

Exercise: Fill in: Ki on PgQC (Porphyromonas gingivalis), entry O=C(c1cccc(-c2ccccc2)c1)N1CCc2[nH]cnc2C1 [MWT-S-00433]
Key: 547

Exercise: Jot down Ki (PgQC (Porphyromonas gingivalis)) of COc1ccc(C(=O)N2CCc3[nH]cnc3C2)cc1OC [MWT-S-00426] .
Key: 1460

Exercise: Identify measured Ki obtained with PgQC (Porphyromonas gingivalis) for COc1cc(C(=O)N2CCc3[nH]cnc3C2)ccc1F [MWT-S-00436] .
Key: 1240

Exercise: Provide measured Ki on PgQC (Porphyromonas gingivalis) for c1ccc(CN2CCc3[nH]cnc3C2)cc1 [MWT-S-00139] please.
Key: 909

Exercise: Give Ki for this entry on PgQC (Porphyromonas gingivalis): c1ccc(CCN2CCc3[nH]cnc3C2)cc1 [MWT-S-00145]
Key: 6470

Exercise: # lookup: PgQC (Porphyromonas gingivalis) Ki, key = O=C(c1ccccc1)N1CCc2[nH]cnc2C1 [MWT-S-00149]
Key: 435

----------
assay-target: PgQC (Porphyromonas gingivalis, UniProt Q7MT37)
Construct: Ki; RA (average residual QC activity of PgQC); other: c = 1 μM; other: c = 1.5 μM; other: c = 10 μM; other: c = 100 μM; other: c = 12 μM; RA; fused on or other part: N-terminal His tag from pET28a(+), cleaved off by thrombin before the enzymatic characterisation
test-details: biochemical
Parameters: species or system P. gingivalis
cond: read-out: RA (average residual QC activity of PgQC)
Kindly supply the reported remaining activity at 1 µM values for the records listed here.
Kindly answer with a numeric value in %, unit omitted.

Exercise: For the compound O=C(c1cccc(F)c1)N1CCc2[nH]cnc2C1 [MWT-S-00430] , give its reported remaining activity at 1 µM.
Key: 40

Exercise: // Input: O=C(c1ccc(-c2ccccc2)cc1)N1CCc2[nH]cnc2C1 [MWT-S-00428] . Output its remaining activity at 1 µM only.
Key: 83

Exercise: Check the records and state remaining activity at 1 µM for FC1(F)Oc2ccc(CN3CCc4[nH]cnc4C3)cc2O1 [MWT-S-00344]
Key: 56

Exercise: Give remaining activity at 1 µM for c1nc2c([nH]1)CCN(Cc1ccc3c(c1)OCCO3)C2 [MWT-S-00380]
Key: 39

Exercise: Quote remaining activity at 1 µM reported for c1ccc(COc2ccc(CN3CCc4[nH]cnc4C3)cc2)cc1 [MWT-S-00359] please.
Key: 31
